# reported GST activity toward metolachlor; entries follow
test: GST activity toward herbicide metolachlor (HPLC-based assay); assay type: biochemical; conditions: recombinant wheat GST expressed in E. coli, affinity purified; ± standard error
Answer with a number only, understood to be in nkat.mg^−1.

{"MOLECULE": "WIC 1: recombinant type I wheat GST, SEQ ID No. 3, amino acid SEQ ID No. 4 (protein, Triticum aestivum L.) MAAPAVKVYGWAMSPFVARALLCLEEAGVEYELVPMSREAGDHRQPDFLARNPFGQVPVLEDGDLTIFESRAVARHVLRKHKPELLGSGSPESAAMVDVWLEVEAHQHQTPAGTIVMQCILTPFLGCQRDQAAIDENAAKLTNLFDVYEARLSASRYLAGEAVSLADLSHFPFMRYFMDTEYASLVEERPHVKAWWEEFKASPAAKRVTEFMPPNFGFGKKAEK", "READING_UNIT": "nkat.mg^−1", "GST activity toward metolachlor": 0.315}

Note: attention shifts to another entry.
Ask: # query: GST activity toward metolachlor of entry WIC 3: recombinant type I wheat GST, SEQ ID No. 7, amino acid SEQ ID No. 8; coding sequence identical in WIC 7 and WIC 8 (protein, Triticum aestivum L.) MAPVKLYGATLSWNVTRCVAALEEAGVQYEIVPINFGTGEHKSPDHLARNPFGQVPALQDGDLYVFESRAICKYACRKNKPELLKEGDIKESAMVDVWLEVEAHQYTAALSPILFECLIHPMLGGATDQKVIDDNLVKIKNVLAVYEAHLSKSKYLAGDFLSLADLNHVSVTLCLAATPYASLFDAYPHVKAWWTDLLARPSVQKVAALMKP
Result: 0.053
